TEST_CONDITIONS: in isobutanol, 288.05 K
READOUT_TYPE: solubility (mole fraction)
Form field (numeric): enter value without unit.

**Q:** Looking for the measured solubility (mole fraction) of COC(=O)C(C)(C)N=NC(C)(C)C(=O)OC , can you help?
**A:** 0.355

----------
TEST_CONDITIONS: in diethyl ether, 262.45 K
READOUT_TYPE: solubility (mole fraction)
Form field (numeric): enter value without unit.

**Q:** Looking for the measured solubility (mole fraction) of COC(=O)C(C)(C)N=NC(C)(C)C(=O)OC , can you help?
**A:** 0.136

----------
TEST_CONDITIONS: in toluene, 278.25 K
READOUT_TYPE: solubility (mole fraction)

**Q:** Looking for the measured solubility (mole fraction) of COC(=O)C(C)(C)N=NC(C)(C)C(=O)OC , can you help?
**A:** 0.367

----------
TEST_CONDITIONS: in n-propanol, 266.25 K
READOUT_TYPE: solubility (mole fraction)
Form field (numeric): enter value without unit.

**Q:** Looking for the measured solubility (mole fraction) of COC(=O)C(C)(C)N=NC(C)(C)C(=O)OC , can you help?
**A:** 0.0234

----------
TEST_CONDITIONS: in acetone, 275.85 K
READOUT_TYPE: solubility (mole fraction)
Form field (numeric): enter value without unit.

**Q:** Looking for the measured solubility (mole fraction) of COC(=O)C(C)(C)N=NC(C)(C)C(=O)OC , can you help?
**A:** 0.308

----------
TEST_CONDITIONS: in tetrachloromethane, 280.75 K
READOUT_TYPE: solubility (mole fraction)

**Q:** Looking for the measured solubility (mole fraction) of COC(=O)C(C)(C)N=NC(C)(C)C(=O)OC , can you help?
**A:** 0.445

----------
TEST_CONDITIONS: in n-butanol, 281.15 K
READOUT_TYPE: solubility (mole fraction)
Form field (numeric): enter value without unit.

**Q:** Looking for the measured solubility (mole fraction) of COC(=O)C(C)(C)N=NC(C)(C)C(=O)OC , can you help?
**A:** 0.123

----------
TEST_CONDITIONS: in ethanol, 280.65 K
READOUT_TYPE: solubility (mole fraction)
Form field (numeric): enter value without unit.

**Q:** Looking for the measured solubility (mole fraction) of COC(=O)C(C)(C)N=NC(C)(C)C(=O)OC , can you help?
**A:** 0.123

----------
TEST_CONDITIONS: in n-butanol, 252.35 K
READOUT_TYPE: solubility (mole fraction)
Form field (numeric): enter value without unit.

**Q:** Looking for the measured solubility (mole fraction) of COC(=O)C(C)(C)N=NC(C)(C)C(=O)OC , can you help?
**A:** 0.0064

----------
TEST_CONDITIONS: in methanol, 288.15 K
READOUT_TYPE: solubility (mole fraction)
Form field (numeric): enter value without unit.

**Q:** Looking for the measured solubility (mole fraction) of COC(=O)C(C)(C)N=NC(C)(C)C(=O)OC , can you help?
**A:** 0.364

----------
TEST_CONDITIONS: in isobutanol, 269.35 K
READOUT_TYPE: solubility (mole fraction)
Form field (numeric): enter value without unit.

**Q:** Looking for the measured solubility (mole fraction) of COC(=O)C(C)(C)N=NC(C)(C)C(=O)OC , can you help?
**A:** 0.0205

----------
TEST_CONDITIONS: in isobutanol, 283.45 K
READOUT_TYPE: solubility (mole fraction)
Form field (numeric): enter value without unit.

**Q:** Looking for the measured solubility (mole fraction) of COC(=O)C(C)(C)N=NC(C)(C)C(=O)OC , can you help?
**A:** 0.194

----------
TEST_CONDITIONS: in tetrachloromethane, 276.15 K
READOUT_TYPE: solubility (mole fraction)
Form field (numeric): enter value without unit.

**Q:** Looking for the measured solubility (mole fraction) of COC(=O)C(C)(C)N=NC(C)(C)C(=O)OC , can you help?
**A:** 0.349

----------
TEST_CONDITIONS: in n-propanol, 253.35 K
READOUT_TYPE: solubility (mole fraction)
Form field (numeric): enter value without unit.

**Q:** Looking for the measured solubility (mole fraction) of COC(=O)C(C)(C)N=NC(C)(C)C(=O)OC , can you help?
**A:** 0.0088

----------
TEST_CONDITIONS: in ethyl acetate, 273.65 K
READOUT_TYPE: solubility (mole fraction)
Form field (numeric): enter value without unit.

**Q:** Looking for the measured solubility (mole fraction) of COC(=O)C(C)(C)N=NC(C)(C)C(=O)OC , can you help?
**A:** 0.308

----------
TEST_CONDITIONS: in dichloromethane, 288.45 K
READOUT_TYPE: solubility (mole fraction)

**Q:** Looking for the measured solubility (mole fraction) of COC(=O)C(C)(C)N=NC(C)(C)C(=O)OC , can you help?
**A:** 0.627

----------
TEST_CONDITIONS: in dichloromethane, 291.05 K
READOUT_TYPE: solubility (mole fraction)
Form field (numeric): enter value without unit.

**Q:** Looking for the measured solubility (mole fraction) of COC(=O)C(C)(C)N=NC(C)(C)C(=O)OC , can you help?
**A:** 0.67

----------
TEST_CONDITIONS: in diethyl ether, 287.95 K
READOUT_TYPE: solubility (mole fraction)
Form field (numeric): enter value without unit.

**Q:** Looking for the measured solubility (mole fraction) of COC(=O)C(C)(C)N=NC(C)(C)C(=O)OC , can you help?
**A:** 0.599

----------
TEST_CONDITIONS: in n-propanol, 278.85 K
READOUT_TYPE: solubility (mole fraction)
Form field (numeric): enter value without unit.

**Q:** Looking for the measured solubility (mole fraction) of COC(=O)C(C)(C)N=NC(C)(C)C(=O)OC , can you help?
**A:** 0.098

----------
TEST_CONDITIONS: in n-butanol, 283.55 K
READOUT_TYPE: solubility (mole fraction)
Form field (numeric): enter value without unit.

**Q:** Looking for the measured solubility (mole fraction) of COC(=O)C(C)(C)N=NC(C)(C)C(=O)OC , can you help?
**A:** 0.18

----------
TEST_CONDITIONS: in toluene, 259.55 K
READOUT_TYPE: solubility (mole fraction)
Form field (numeric): enter value without unit.

**Q:** Looking for the measured solubility (mole fraction) of COC(=O)C(C)(C)N=NC(C)(C)C(=O)OC , can you help?
**A:** 0.141

----------
TEST_CONDITIONS: in methanol, 257.65 K
READOUT_TYPE: solubility (mole fraction)
Form field (numeric): enter value without unit.

**Q:** Looking for the measured solubility (mole fraction) of COC(=O)C(C)(C)N=NC(C)(C)C(=O)OC , can you help?
**A:** 0.0169

----------
TEST_CONDITIONS: in n-propanol, 262.15 K
READOUT_TYPE: solubility (mole fraction)
Form field (numeric): enter value without unit.

**Q:** Looking for the measured solubility (mole fraction) of COC(=O)C(C)(C)N=NC(C)(C)C(=O)OC , can you help?
**A:** 0.0162

----------
TEST_CONDITIONS: in methanol, 252.95 K
READOUT_TYPE: solubility (mole fraction)
Form field (numeric): enter value without unit.

**Q:** Looking for the measured solubility (mole fraction) of COC(=O)C(C)(C)N=NC(C)(C)C(=O)OC , can you help?
**A:** 0.0142

----------
TEST_CONDITIONS: in isobutanol, 259.45 K
READOUT_TYPE: solubility (mole fraction)
Form field (numeric): enter value without unit.

**Q:** Looking for the measured solubility (mole fraction) of COC(=O)C(C)(C)N=NC(C)(C)C(=O)OC , can you help?
**A:** 0.0111

----------
TEST_CONDITIONS: in acetonitrile, 287.95 K
READOUT_TYPE: solubility (mole fraction)
Form field (numeric): enter value without unit.

**Q:** Looking for the measured solubility (mole fraction) of COC(=O)C(C)(C)N=NC(C)(C)C(=O)OC , can you help?
**A:** 0.557

----------
TEST_CONDITIONS: in tetrachloromethane, 252.55 K
READOUT_TYPE: solubility (mole fraction)
Form field (numeric): enter value without unit.

**Q:** Looking for the measured solubility (mole fraction) of COC(=O)C(C)(C)N=NC(C)(C)C(=O)OC , can you help?
**A:** 0.109

----------
TEST_CONDITIONS: in n-propanol, 271.05 K
READOUT_TYPE: solubility (mole fraction)
Form field (numeric): enter value without unit.

**Q:** Looking for the measured solubility (mole fraction) of COC(=O)C(C)(C)N=NC(C)(C)C(=O)OC , can you help?
**A:** 0.0385

----------
TEST_CONDITIONS: in THF, 265.15 K
READOUT_TYPE: solubility (mole fraction)
Form field (numeric): enter value without unit.

**Q:** Looking for the measured solubility (mole fraction) of COC(=O)C(C)(C)N=NC(C)(C)C(=O)OC , can you help?
**A:** 0.224
